System: PANC-1 epithelioid carcinoma of the pancreas cell line bearing KRas^G12D oncogenic mutation
Test: Cell proliferation inhibition (MTS), PANC-1
Assay type: cell-based
Details: Homo sapiens, 72 h incubation, MTS, compounds 1-53, median from experimental results
pIC50: −log10 of the molar value.
measure: pIC50

Solved entries (count: 5):
CCNC(=O)N1CCc2cc(OC)c(OCCc3cccc(O)c3)cc2C1c1ccc(C)cc1C (centres unmarked)
5.74
COc1cc2c(cc1OCCc1cnccn1)C(c1ccc(C)cc1C)N(C(=O)NCc1ccon1)CC2 (centres unmarked)
6.30
CCC(=O)CN1CCc2cc(OC)c(OCCc3cccc(O)c3)cc2C1c1ccc(C)cc1Cl (centres unmarked)
4.87
COc1cc2c(cc1OCCc1cccc(O)c1)C(c1ccc(C)cc1C)N(C(=O)NCc1ccncc1)CC2 (centres unmarked)
4.92
COc1cc2c(cc1OCCc1cccc(O)c1)C(c1ccc(C)cc1Cl)N(C(=O)NCc1cocn1)CC2 (centres unmarked)
6.17

P: Cc1ccc(C2c3cc(OCCc4cccc(O)c4)c(O)cc3CCN2C(=O)NCc2cocn2)c(C)c1 (centres unmarked)
Q: Cc1ccc(C2c3cc(OCCc4cccnc4)ccc3CCN2C(=O)NCc2cocn2)c(C)c1 (centres unmarked)
Problem: Parameter check: reported pIC50 is higher for which label, P or Q ? Provide the label of your selected option as the answer.
Result: P

====

Tested on: A549 lung carcinoma cell line bearing KRas^G12S oncogenic mutation
Assay: Cell proliferation inhibition (MTS), A549
Format: cell-based
Details: Homo sapiens, compounds 54-63, based on estimations and/or preliminary experimental results
measure: IC50 (nM)

COc1cnc(CCOc2cc3c(cc2OC)CCN(C(=O)NCc2cocn2)C3c2ccc(C)cc2C)cn1 (stereo not drawn) [Compound 63]
600
COc1ccc(CCOc2cc3c(cc2OC)CCN(C(=O)NCc2cocn2)C3c2ccc(C)cc2C)cn1 (stereo not drawn) [Compound 55]
600
COc1cc2c(cc1OCCc1cncc(C)n1)C(c1ccc(C)cc1C)N(C(=O)NCc1cocn1)CC2 (stereo not drawn) [Compound 61]
600

====

Test system: A549 lung carcinoma cell line bearing KRas^G12S oncogenic mutation
Test: Cell proliferation inhibition (MTS), A549
Format: cell-based
Settings: Homo sapiens, 72 h incubation, MTS, compounds 1-53, median from experimental results
measure: IC50 (µM)

Solved entries (count: 3):
COc1cc2c(cc1OCCc1cccc(O)c1)C(c1c(C)cc(C)cc1O)N(CCC(C)=O)CC2 (centres unmarked)
15.9
CC(=O)c1cc2c(cc1OCCc1cccnc1)C(c1ccc(C)cc1C)N(C(=O)NCc1cocn1)CC2 (centres unmarked)
0.34
COc1cc2c(cc1OCCc1cccc(O)c1)C(c1c(O)cc(C)cc1Cl)N(CCC(C)=O)CC2 (centres unmarked)
4.82

a: COc1cc2c(cc1OCCc1cccc(C(=O)O)c1)C(c1ccc(C)cc1C)N(C(=O)NCc1cocn1)CC2 (centres unmarked)
b: CCNC(=O)N1CCc2cc(OC)c(OCCc3cccnc3)cc2C1c1ccc(C)cc1C (centres unmarked)
Problem: Parameter check: reported IC50 is higher for which label, a or b ? Provide the label of your selected option as the answer.
Result: a

I: C=CC(=O)Nc1cc2c(cc1OCCc1cccnc1)C(c1ccc(C)cc1C)N(C(=O)NCc1cocn1)CC2 (centres unmarked)
II: CCC(=O)CCN1CCc2cc(OC)c(OCC(=O)c3cccc(C(=O)OC)c3)cc2C1c1ccc(C)cc1Cl (centres unmarked)
Problem: Between I and II , which one shows the smaller IC50 number? Provide the label of your selected option as the answer.
Result: I

P: CCNC(=O)N1CCc2cc(OC)c(OCCc3cnccn3)cc2C1c1ccc(C)cc1C (centres unmarked)
Q: CCC(=O)CCN1CCc2cc(OC)c(OCCc3cccc(O)c3)cc2C1c1ccccc1C (centres unmarked)
R: Cc1ccc(C2c3cc(OCCc4cccnc4)c(NC=O)cc3CCN2C(=O)NCc2cocn2)c(C)c1 (centres unmarked)
S: COc1cc2c(cc1OCCc1ccc3c(c1)CCO3)C(c1ccc(C)cc1C)N(C(=O)NCc1ccncc1)CC2 (centres unmarked)
Problem: Form: Sort by [IC50] Order [ ascending ] Please write the labels in the order that was asked for.
Result: P, R, S, Q

====

Test system: A549 lung carcinoma cell line bearing KRas^G12S oncogenic mutation
Assay: Cell proliferation inhibition (MTS), A549
Type: cell-based
Conditions: Homo sapiens, 72 h incubation, MTS, compounds 1-53, median from experimental results
measure: IC50 (nM)

Solved entries (count: 5):
COc1cc2c(cc1OCCc1cccc(OC(C)=O)c1)C(c1ccc(C)cc1C)N(C(=O)NCc1cocn1)CC2 (centres unmarked) [Compound 3]
1970
Cc1ccc(C2c3cc(OCCc4cccc(O)c4)c(C(=O)O)cc3CCN2C(=O)NCc2cocn2)c(C)c1 (centres unmarked) [Compound 32]
440
COc1cc2c(cc1OCCc1cccc(O)c1)C(c1ccc(C)cc1Cl)N(C(=O)NCc1cocn1)CC2 (centres unmarked) [Compound 29]
760
COc1ccc(C2c3cc(OCCc4cccc(O)c4)c(OC)cc3CCN2CCC(C)=O)c(C)c1 (centres unmarked) [Compound 11]
18000
COc1cc2c(cc1OCCc1cccc(O)c1)C(c1ccc(C)cc1C)N(C(=O)NCc1cncs1)CC2 (centres unmarked) [Compound 19]
950

P: CC(=O)Cc1cc2c(cc1OCCc1cccnc1)C(c1ccc(C)cc1C)N(C(=O)NCc1cocn1)CC2 (centres unmarked) [Compound 40]
Q: CCC(=O)CCN1CCc2cc(OC)c(OCCc3cccc(O)c3)cc2C1c1ccc(OC)c(OC)c1Cl (centres unmarked) [Compound 8]
Problem: Between P and Q , which one shows the smaller IC50 number? Provide the label of your selected option as the answer.
Result: P

====

Test system: PANC-1 epithelioid carcinoma of the pancreas cell line bearing KRas^G12D oncogenic mutation
Assay: Cell proliferation inhibition (MTS), PANC-1
Type: cell-based
Conditions: Homo sapiens, 72 h incubation, MTS, compounds 1-53, median from experimental results
measure: IC50 (nM)

COc1cc2c(cc1OCCc1cnccn1)C(c1ccc(C)cc1C)N(C(=O)NCc1cocn1)CC2 (stereo not shown)
700
Cc1ccc(C2c3cc(OCCc4cccnc4)c(NC=O)cc3CCN2C(=O)NCc2cocn2)c(C)c1 (stereo not shown)
670

====

System: A549 lung carcinoma cell line bearing KRas^G12S oncogenic mutation
Experiment: Cell proliferation inhibition (MTS), A549
Assay type: cell-based
Conditions: Homo sapiens, 72 h incubation, MTS, compounds 1-53, median from experimental results
measure: IC50 (nM)

Cc1ccc(C2c3cc(OCCc4cccc(F)c4)c(O)cc3CCN2C(=O)NCc2cocn2)c(C)c1 (stereo not drawn)
2020

a: Cc1ccc(C2c3cc(OCCc4cccnc4)ccc3CCN2C(=O)NCc2cocn2)c(C)c1 (stereo not drawn)
b: Cc1ccc(C2c3cc(OCCc4cccnc4)c(C(=O)O)cc3CCN2C(=O)NCc2cocn2)c(C)c1 (stereo not drawn)
Problem: Parameter check: reported IC50 is higher for which label, a or b ? Provide the label of your selected option as the answer.
Result: a
(a: 740 nM, b: 330 nM)

A: CC(=O)Nc1cc2c(cc1OCCc1cccnc1)C(c1ccc(C)cc1C)N(C(=O)NCc1cocn1)CC2 (stereo not drawn)
B: COc1cc2c(cc1OCCc1cccc(O)c1)C(c1ccc(C)cc1Cl)N(C(=O)NCc1ccncc1)CC2 (stereo not drawn)
C: Cc1ccc(C2c3cc(OCCc4cccc(C(N)=O)c4)c(C(N)=O)cc3CCN2C(=O)NCc2cocn2)c(C)c1 (stereo not drawn)
D: CCC(=O)CCN1CCc2cc(OC)c(OCCc3cccc(O)c3)cc2C1c1ccc(C)cc1C (stereo not drawn)
E: Cc1ccc(C2c3cc(OCCc4cccnc4)c(Cl)cc3CCN2C(=O)NCc2cocn2)c(C)c1 (stereo not drawn)
Problem: Put the entries in order of IC50, starting with the largest number. Please write the labels in the order that was asked for.
Result: B, D, C, A, E

P: COc1cc2c(cc1OCCc1cnccn1)C(c1ccc(C)cc1C)N(C(=O)NCc1cocn1)CC2 (stereo not drawn)
Q: COc1cc2c(cc1OCCc1cccc(F)c1)C(c1ccc(C)cc1C)N(C(=O)NCc1cocn1)CC2 (stereo not drawn)
R: COc1cc2c(cc1OCCc1ccccc1)C(c1ccc(C)cc1C)N(C(=O)NCc1cocn1)CC2 (stereo not drawn)
S: CCNC(=O)N1CCc2cc(OC)c(OCCc3cccc(O)c3)cc2C1c1ccc(C)cc1C (stereo not drawn)
Problem: Form: Sort by [IC50] Order [ ascending ] Please write the labels in the order that was asked for.
Result: P, R, Q, S

1: CCNC(=O)N1CCc2cc(OC)c(OCCc3cccc(N)c3)cc2C1c1ccc(C)cc1C (stereo not drawn)
2: Cc1ccc(C2c3cc(OCCc4cccnc4)c(C(N)=O)cc3CCN2C(=O)NCc2cocn2)c(C)c1 (stereo not drawn)
3: CCC(=O)CN1CCc2cc(OC)c(OCCc3cccc(O)c3)cc2C1c1ccc(C)cc1Cl (stereo not drawn)
Problem: Form: Sort by [IC50] Order [ ascending ] Please write the labels in the order that was asked for.
Result: 2, 1, 3

I: COc1cc2c(cc1OCCc1cnccn1)C(c1ccc(C)cc1C)N(C(=O)NCc1ccon1)CC2 (stereo not drawn)
II: COc1cc2c(cc1OCCc1cccc(C(N)=O)c1)C(c1ccc(C)cc1C)N(C(=O)NCc1cocn1)CC2 (stereo not drawn)
Problem: Between I and II , which one shows the smaller IC50 number? Provide the label of your selected option as the answer.
Result: I
